Recorded RF, Methanol/Water/Hydrochloric acid (conc.), mobile phase IX for the following molecules
Assay: Reverse-phase thin-layer chromatographic lipophilicity (RF, RM0)
Assay type: physicochemical
Conditions: RP-18 silica; IX = 50%MeOH/45%H2O/5%HCl
QUANTITY_KIND: RF, Methanol/Water/Hydrochloric acid (conc.), mobile phase IX

{"columns": ["MOLECULE", "VALUE_REPORTED"],
 "data": [
  ["Clc1ccc2c(NCCCCNCC34CC5CC(CC(C5)C3)C4)ccnc2c1", 0.11],
  ["Clc1ccc2c(NCCCCN(CCC34CC5CC(CC(C5)C3)C4)CCC34CC5CC(CC(C5)C3)C4)ccnc2c1", 0],
  ["Clc1ccc2c(N3CCN(CC45CC6CC(CC(C6)C4)C5)CC3)ccnc2c1", 0.22],
  ["CC(CCNCCC12CC3CC(CC(C3)C1)C2)Nc1ccnc2cc(Cl)ccc12 (stereo not shown)", 0.03],
  ["Clc1ccc2c(Nc3ccc(NCC45CC6CC(CC(C6)C4)C5)cc3)ccnc2c1", 0.09],
  ["Clc1ccc2c(Nc3cccc4c(NCCC56CC7CC(CC(C7)C5)C6)cccc34)ccnc2c1", 0],
  ["Clc1ccc2c(NCCN(CCC34CC5CC(CC(C5)C3)C4)CCC34CC5CC(CC(C5)C3)C4)ccnc2c1", 0],
  ["Clc1ccc2c(NCCCN3CCN(CCCNCC45CC6CC(CC(C6)C4)C5)CC3)ccnc2c1", 0.22],
  ["Clc1ccc2c(N3CCN(CCC45CC6CC(CC(C6)C4)C5)CC3)ccnc2c1", 0.12],
  ["CC(CCNCCC12CC3CC(CC(C3)C1)C2)Nc1ccnc2ccccc12 (stereo not shown)", 0.09],
  ["CC(CCNCC12CC3CC(CC(C3)C1)C2)Nc1ccnc2cc(Cl)ccc12 (stereo not shown)", 0.1],
  ["FC(F)(F)c1ccc2c(NCCCNCC34CC5CC(CC(C5)C3)C4)ccnc2c1", 0.09],
  ["Clc1ccc2c(NCCCCCCNCC34CC5CC(CC(C5)C3)C4)ccnc2c1", 0.06],
  ["Clc1ccc2c(NCCNCC34CC5CC(CC(C5)C3)C4)ccnc2c1", 0.15],
  ["CC(CCNCC12CC3CC(CC(C3)C1)C2)Nc1ccnc2ccccc12 (stereo not shown)", 0.11],
  ["Clc1ccc2c(NCCCNCC34CC5CC(CC(C5)C3)C4)ccnc2c1", 0.11],
  ["CC(CCNCC12CC3CC(CC(C3)C1)C2)Nc1ccnc2cc(C(F)(F)F)ccc12 (stereo not shown)", 0.09],
  ["Clc1ccc2c(NCCCCCN(CCC34CC5CC(CC(C5)C3)C4)CCC34CC5CC(CC(C5)C3)C4)ccnc2c1", 0],
  ["Clc1ccc2c(NCCCCCCCCNCC34CC5CC(CC(C5)C3)C4)ccnc2c1", 0.02]
]}

====

Assay: Reverse-phase thin-layer chromatographic lipophilicity (RF, RM0)
Assay type: physicochemical
Details: Acetone/Water/Hydrochloric acid (conc.); intercept of RM = RM0 + bC
// returns Not fulfilled unless RM0 is strictly below 2, in which case Fulfilled

{"columns": ["COMPOUND", "CAT"],
 "data": [
  ["Clc1ccc2c(NCCNCCC34CC5CC(CC(C5)C3)C4)ccnc2c1", "Not fulfilled"],
  ["Clc1ccc2c(NCCCCN(CCC34CC5CC(CC(C5)C3)C4)CCC34CC5CC(CC(C5)C3)C4)ccnc2c1", "Not fulfilled"],
  ["CC(CCNCC12CC3CC(CC(C3)C1)C2)Nc1ccnc2cc(Cl)ccc12 (centres unmarked)", "Fulfilled"],
  ["Clc1ccc2c(NCCCN3CCN(CCCNCC45CC6CC(CC(C6)C4)C5)CC3)ccnc2c1", "Fulfilled"],
  ["CC(CCNCCC12CC3CC(CC(C3)C1)C2)Nc1ccnc2ccccc12 (centres unmarked)", "Fulfilled"],
  ["Clc1ccc2c(NCCCCCN(CCC34CC5CC(CC(C5)C3)C4)CCC34CC5CC(CC(C5)C3)C4)ccnc2c1", "Not fulfilled"]
]}
